Reference source: paper PMC7226613

tested on: macrophage J774A.1 cell line; experiment: Cytotoxicity assay (AlamarBlue); settings: read-out: Macrophage J774A.1 CC50; 24 h, AlamarBlue, mean ± SD
measured_metric: CC50 (µM)
Numbers only, in µM.

Please report CC50 for the following molecule: CN[C@@H]1C[C@H]2O[C@@](C)([C@@H]1OC)n1c3ccccc3c3c4c(c5c6ccccc6n2c5c31)C(=O)NC4 [Compound 1, staurosporine] 8.74

----------
assay: Cytotoxicity assay (AlamarBlue); conditions: mouse, J774A.1 macrophage cell line
What CC50 at 24 h was measured for each of the following?
Numbers only, in µM.

Give one value of CC50 at 24 h per listed molecule.
1. CO[C@H]1[C@H](O)[C@@H](O)[C@H](n2c3c(Cl)cccc3c3c4c(c5c6cccc(Cl)c6[nH]c5c32)C(=O)NC4=O)O[C@@H]1CO
2. CCCCCCCCCCCCCCCCOP(=O)([O-])OCC[N+](C)(C)C
3. O=C(Cn1ccnc1[N+](=O)[O-])NCc1ccccc1
4. O=C1NCc2c1c1c3ccccc3[nH]c1c1[nH]c3ccccc3c21 [Compound 8, K252c]

[1.42, 72.2, 400, 35.4]
